system: lipopolysaccharide-stimulated release of TNFα from human peripheral blood mononuclear cells (PBMC); assay: Whole cell LPS-stimulated TNF-α release assay; type: cell-based; settings: LPS-stimulated human PBMC; read-out: TNFα Release IC50
Counter-ions that a name gives are not always drawn.
measured.property: pIC50
When answering, recall that pIC50 equals minus log10 of the concentration in mol/L, and write that number alone.

CC(C)c1nc(-c2ccc(F)cc2)c(-c2ccnc(Nc3ccccc3)n2)n1CC[C@@H](O)C[C@@H](O)CC(=O)O [Example 25, sodium salt]    5.01

Prompt: Look up pIC50 for this molecule: CC(C)c1nc(-c2ccc(F)cc2)c(-c2ccnc(Nc3ccccc3)n2)n1/C=C/[C@@H](O)C[C@@H](O)CC(=O)O (racemic) [Example 28, sodium salt]
Completion: 5.01
